Reference source: the RNAGym collection of RNA variant scans (doi:10.1038/nmeth.2970)

B1: GFP aptamer (parent)
chain: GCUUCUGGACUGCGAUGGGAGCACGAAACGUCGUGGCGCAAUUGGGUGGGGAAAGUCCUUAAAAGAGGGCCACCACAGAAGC

Variants of: B1
testProtocol: HiTS-RAP
assaySetup: with EGFP
pKd: −log10 of the molar value.
Would you mind labelling by pKd? At or over 8 is true, under is false.

{"mutationDescriptor": "G35A", "cat": "false"}
{"mutationDescriptor": "A20C", "cat": "false"}
{"mutationDescriptor": "A54C", "cat": "false"}

Incoming: Test whether the variant G35C records pKd of 8 or higher.
Outgoing: false

Incoming: Threshold query (pKd >= 8) on G21A
Outgoing: false

Incoming: Please indicate if the recorded pKd for A61C meets or exceeds 8.
Outgoing: true

Incoming: Determine whether this variant has pKd no lower than 8: C71A
Outgoing: false

Incoming: Threshold query (pKd >= 8) on G7C
Outgoing: false

Incoming: Assess whether reported pKd for A26G C73U sits at 8 or higher.
Outgoing: true

Incoming: Could you please find out whether U11C A27G has pKd that meets 8 or exceeds it?
Outgoing: true

Incoming: Decide: pKd of C29G >= 8?
Outgoing: true

Incoming: Say whether G25A shows pKd of 8 or more.
Outgoing: true
